target: T1, plasma purified human AT-III (antithrombin III) (human, UniProt P01008 33-464); experiment: K0.5: AT-III/UFH titrated on FIXa, residual activity on fluorogenic substrate
T1 construct: also called AT-III/UFH (in complex with unfractionated heparin)
measured_endpoint: pIC50
As a rule, pIC50 stands for the negative log10 of the concentration, concentration in M.

FIXa-Y259F/K265T/Y345T (enzyme, also called Y94F/K98T/Y177T) chain 1: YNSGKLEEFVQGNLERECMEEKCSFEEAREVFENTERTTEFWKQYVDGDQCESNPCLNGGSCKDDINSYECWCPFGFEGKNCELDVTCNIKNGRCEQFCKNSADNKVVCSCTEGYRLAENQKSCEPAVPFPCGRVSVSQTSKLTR chain 2: VVGGEDAKPGQFPWQVVLNGKVDAFCGGSIVNEKWIVTAAHCVETGVKITVVAGEHNIEETEHTEQKRNVIRIIPHHNFNAAINTYNHDIALLELDEPLVLNSYVTPICIADKEYTNIFLKFGSGYVSGWGRVFHKGRSALVLQYLRVPLVDRATCLRSTKFTITNNMFCAGFHEGGRDSCQGDSGGPHVTEVEGTSFLTGIISWGEECAMKGKYGIYTKVSRYVNWIKEKTKLT :: 8.22

Give recorded pIC50. FIXa-R318Y/R338E/E410N/T412V (enzyme, also called R150Y/R170E/E240N/T242V) chain 1: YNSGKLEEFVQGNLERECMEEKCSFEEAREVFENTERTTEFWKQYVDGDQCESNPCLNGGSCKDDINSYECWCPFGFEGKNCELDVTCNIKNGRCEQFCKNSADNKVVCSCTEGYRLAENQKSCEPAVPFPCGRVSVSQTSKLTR chain 2: VVGGEDAKPGQFPWQVVLNGKVDAFCGGSIVNEKWIVTAAHCVETGVKITVVAGEHNIEETEHTEQKRNVIRIIPHHNYNAAINKYNHDIALLELDEPLVLNSYVTPICIADKEYTNIFLKFGSGYVSGWGRVFHKGYSALVLQYLRVPLVDRATCLESTKFTIYNNMFCAGFHEGGRDSCQGDSGGPHVTEVEGTSFLTGIISWGEECAMKGKYGIYTKVSRYVNWIKNKVKLT
5.31
